assay: Clearance in plasma of Sprague-Dawley CD rat at 5 mg/kg, sc administered as single dose measured over 1 to 168 hrs post dose by LC/MS-MS method; type: ADME, organism-based

{"CHEMICAL SMILES": "CC1CCN(C[C@@H](NC(=O)[C@H]2Cc3ccc(O)cc3CN2)C(C)C)CC1", "CL/F (mL/min/kg)": 43.8}

* * *

species on record: Homo sapiens; experiment: Selectivity index, ratio of Ke for antagonist activity at human mu-opioid receptor expressed in CHO cell membranes to Ke for antagonist activity at human kappa-opioid receptor expressed in CHO cell membranes; type: cell-based
Recorded measurements of Ratio Ke, one per entry

{"COMPOUND": "COC1CCN(C[C@@H](NC(=O)[C@H]2Cc3ccc(O)cc3CN2)C(C)C)CC1", "Ratio Ke": 30}
{"COMPOUND": "CC(C)[C@@H](CN1CCC(C(N)=O)CC1)NC(=O)[C@H]1Cc2ccc(O)cc2CN1", "Ratio Ke": 40}
{"COMPOUND": "CC(C)[C@@H](CN1CCCCC1C)NC(=O)[C@H]1Cc2ccc(O)cc2CN1 (mixture of isomers)", "Ratio Ke": 3}
{"COMPOUND": "CC(C)[C@@H](CN1CCN(C)CC1)NC(=O)[C@H]1Cc2ccc(O)cc2CN1", "Ratio Ke": 9}
{"COMPOUND": "CC(C)[C@@H](CN1CCC(C(F)(F)F)CC1)NC(=O)[C@H]1Cc2ccc(O)cc2CN1", "Ratio Ke": 14}
{"COMPOUND": "CC(C)[C@@H](CN1CCC(C#N)CC1)NC(=O)[C@H]1Cc2ccc(O)cc2CN1", "Ratio Ke": 51}
{"COMPOUND": "CC(C)[C@@H](CN1CC[C@@](C)(c2cccc(O)c2)[C@@H](C)C1)NC(=O)[C@H]1Cc2ccc(O)cc2CN1C", "Ratio Ke": 1310}
{"COMPOUND": "CC(C)[C@@H](CN1CCC(C)(C)CC1)NC(=O)[C@H]1Cc2ccc(O)cc2CN1", "Ratio Ke": 40}
{"COMPOUND": "CCC1CCN(C[C@@H](NC(=O)[C@H]2Cc3ccc(O)cc3CN2)C(C)C)CC1", "Ratio Ke": 30}
{"COMPOUND": "CCN(CC)C[C@@H](NC(=O)[C@H]1Cc2ccc(O)cc2CN1)C(C)C", "Ratio Ke": 16.5}
{"COMPOUND": "CC(C)[C@@H](CN1CCC(F)(F)CC1)NC(=O)[C@H]1Cc2ccc(O)cc2CN1", "Ratio Ke": 51}
{"COMPOUND": "CC(C)[C@@H](CN1CCC(N(C)C)CC1)NC(=O)[C@H]1Cc2ccc(O)cc2CN1", "Ratio Ke": 39}

* * *

assay: Half life in plasma of Sprague-Dawley CD rat at 5 mg/kg, sc administered as single dose measured over 1 to 168 hrs post dose by LC/MS-MS method; assay type: ADME, organism-based
MEASUREMENT TYPE: half-life (h)

{"CHEMICAL SMILES": "CC1CCN(C[C@@H](NC(=O)[C@H]2Cc3ccc(O)cc3CN2)C(C)C)CC1", "READOUT NUMBER": 30.7}

* * *

biological target: Mu-type opioid receptor (Homo sapiens) (UniProt P35372); assay: Antagonist activity at human mu-opioid receptor expressed in CHO cell membranes assessed as inhibition of DAMGO-induced [35S]GTPgammaS binding incubated for 60 mins by scintillation counting method; assay type: functional
Sequence (P35372 whole entry): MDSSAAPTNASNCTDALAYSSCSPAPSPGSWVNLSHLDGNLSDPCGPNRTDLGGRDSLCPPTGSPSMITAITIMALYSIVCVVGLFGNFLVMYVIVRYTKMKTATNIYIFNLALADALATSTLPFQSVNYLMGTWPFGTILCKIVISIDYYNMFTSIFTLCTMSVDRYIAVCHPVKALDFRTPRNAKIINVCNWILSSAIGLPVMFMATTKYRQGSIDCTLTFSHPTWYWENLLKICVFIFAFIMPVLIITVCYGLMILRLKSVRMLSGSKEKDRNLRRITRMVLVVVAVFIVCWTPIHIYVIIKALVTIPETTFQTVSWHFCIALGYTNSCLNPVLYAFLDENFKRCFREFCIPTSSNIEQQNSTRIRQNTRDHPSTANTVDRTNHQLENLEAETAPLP
Recorded measurements of Ke, one per entry
MEASUREMENT TYPE: Ke (nM)

{"COMPOUND": "CC(C)[C@@H](CN1CCC(C(F)(F)F)CC1)NC(=O)[C@H]1Cc2ccc(O)cc2CN1", "READOUT NUMBER": 67.9}
{"COMPOUND": "CC(C)[C@@H](CN1CCC(C#N)CC1)NC(=O)[C@H]1Cc2ccc(O)cc2CN1", "READOUT NUMBER": 647}
{"COMPOUND": "CC(C)[C@@H](CN1CCC(N(C)C)CC1)NC(=O)[C@H]1Cc2ccc(O)cc2CN1", "READOUT NUMBER": 318}
{"COMPOUND": "CC(C)[C@@H](CN1CCCCC1C)NC(=O)[C@H]1Cc2ccc(O)cc2CN1 (mixture of isomers)", "READOUT NUMBER": 44.9}
{"COMPOUND": "COC1CCN(C[C@@H](NC(=O)[C@H]2Cc3ccc(O)cc3CN2)C(C)C)CC1", "READOUT NUMBER": 198}
{"COMPOUND": "CC(C)[C@@H](CN1CCC(F)(F)CC1)NC(=O)[C@H]1Cc2ccc(O)cc2CN1", "READOUT NUMBER": 604}
{"COMPOUND": "CCC1CCN(C[C@@H](NC(=O)[C@H]2Cc3ccc(O)cc3CN2)C(C)C)CC1", "READOUT NUMBER": 74.8}
{"COMPOUND": "CC(C)[C@@H](CN1CCN(C)CC1)NC(=O)[C@H]1Cc2ccc(O)cc2CN1", "READOUT NUMBER": 915}
{"COMPOUND": "CC(C)[C@@H](CN1CCC(C(N)=O)CC1)NC(=O)[C@H]1Cc2ccc(O)cc2CN1", "READOUT NUMBER": 129}
{"COMPOUND": "CC(C)[C@@H](CN1CCC(C)(C)CC1)NC(=O)[C@H]1Cc2ccc(O)cc2CN1", "READOUT NUMBER": 142}
{"COMPOUND": "CC(C)[C@@H](CN1CCC(C(F)F)CC1)NC(=O)[C@H]1Cc2ccc(O)cc2CN1", "READOUT NUMBER": 70.9}
